Biological target: N-type calcium channel (CaV2.2) (Homo sapiens, UniProt Q00975)
Sequence (Q00975 whole entry): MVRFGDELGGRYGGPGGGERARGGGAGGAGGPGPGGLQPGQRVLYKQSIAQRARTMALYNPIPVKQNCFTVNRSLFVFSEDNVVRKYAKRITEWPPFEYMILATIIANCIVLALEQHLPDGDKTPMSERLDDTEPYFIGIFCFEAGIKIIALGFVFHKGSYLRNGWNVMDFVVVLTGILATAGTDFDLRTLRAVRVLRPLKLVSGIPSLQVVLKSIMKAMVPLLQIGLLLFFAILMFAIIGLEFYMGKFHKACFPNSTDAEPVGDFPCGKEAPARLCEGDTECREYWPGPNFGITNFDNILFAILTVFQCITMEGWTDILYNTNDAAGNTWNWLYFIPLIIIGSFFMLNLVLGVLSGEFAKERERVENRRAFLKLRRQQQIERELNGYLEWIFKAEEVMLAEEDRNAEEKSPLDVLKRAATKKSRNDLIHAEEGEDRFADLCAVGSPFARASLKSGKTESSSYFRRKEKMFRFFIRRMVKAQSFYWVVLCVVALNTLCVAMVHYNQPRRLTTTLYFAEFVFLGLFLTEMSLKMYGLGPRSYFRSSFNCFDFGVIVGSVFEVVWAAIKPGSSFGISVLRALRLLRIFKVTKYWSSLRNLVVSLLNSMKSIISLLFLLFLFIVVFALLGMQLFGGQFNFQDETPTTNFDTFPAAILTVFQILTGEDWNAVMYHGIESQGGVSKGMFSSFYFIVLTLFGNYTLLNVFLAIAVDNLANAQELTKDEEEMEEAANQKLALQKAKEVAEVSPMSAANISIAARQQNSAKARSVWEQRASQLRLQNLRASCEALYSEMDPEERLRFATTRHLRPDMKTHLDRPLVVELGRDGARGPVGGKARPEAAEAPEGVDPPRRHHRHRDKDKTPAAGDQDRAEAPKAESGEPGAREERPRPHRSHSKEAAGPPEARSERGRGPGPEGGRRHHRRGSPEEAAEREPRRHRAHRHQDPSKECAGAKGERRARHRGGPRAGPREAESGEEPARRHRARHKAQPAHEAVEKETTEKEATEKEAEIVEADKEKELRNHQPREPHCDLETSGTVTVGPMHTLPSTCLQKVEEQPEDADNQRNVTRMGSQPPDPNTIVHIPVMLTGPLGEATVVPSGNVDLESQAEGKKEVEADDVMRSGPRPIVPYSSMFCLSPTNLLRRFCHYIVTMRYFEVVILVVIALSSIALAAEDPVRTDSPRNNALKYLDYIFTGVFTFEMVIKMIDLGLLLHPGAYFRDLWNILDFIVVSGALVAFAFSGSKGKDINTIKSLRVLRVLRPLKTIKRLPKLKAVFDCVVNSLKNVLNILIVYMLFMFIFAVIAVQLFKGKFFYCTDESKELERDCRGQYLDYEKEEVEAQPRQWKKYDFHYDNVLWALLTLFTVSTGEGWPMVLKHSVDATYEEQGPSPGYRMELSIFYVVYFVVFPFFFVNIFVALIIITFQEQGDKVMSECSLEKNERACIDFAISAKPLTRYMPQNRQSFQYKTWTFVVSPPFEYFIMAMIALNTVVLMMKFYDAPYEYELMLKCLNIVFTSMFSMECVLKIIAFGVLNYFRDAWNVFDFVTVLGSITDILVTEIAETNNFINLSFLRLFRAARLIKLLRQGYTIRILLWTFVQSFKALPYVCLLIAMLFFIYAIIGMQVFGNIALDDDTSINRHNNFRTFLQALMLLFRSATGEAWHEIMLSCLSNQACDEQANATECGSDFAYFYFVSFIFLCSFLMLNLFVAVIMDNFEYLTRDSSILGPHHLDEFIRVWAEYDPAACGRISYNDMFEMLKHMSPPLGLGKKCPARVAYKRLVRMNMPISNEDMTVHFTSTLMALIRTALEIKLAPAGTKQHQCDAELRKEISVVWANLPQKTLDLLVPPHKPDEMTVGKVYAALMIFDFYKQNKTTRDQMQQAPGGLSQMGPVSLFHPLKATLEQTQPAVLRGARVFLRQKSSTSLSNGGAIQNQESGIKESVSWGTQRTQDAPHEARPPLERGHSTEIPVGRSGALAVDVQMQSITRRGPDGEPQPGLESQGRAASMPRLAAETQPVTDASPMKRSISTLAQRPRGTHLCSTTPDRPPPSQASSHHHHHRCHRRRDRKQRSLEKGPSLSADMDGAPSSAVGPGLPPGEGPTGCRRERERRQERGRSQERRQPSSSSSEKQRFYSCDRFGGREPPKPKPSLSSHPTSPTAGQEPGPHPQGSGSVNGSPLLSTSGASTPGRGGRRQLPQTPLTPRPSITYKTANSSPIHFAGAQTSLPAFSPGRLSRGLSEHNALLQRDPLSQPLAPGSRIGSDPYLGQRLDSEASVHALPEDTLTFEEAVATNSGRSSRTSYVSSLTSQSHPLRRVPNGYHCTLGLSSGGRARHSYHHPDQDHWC
Sequence (P54289 25-946 partner limits assumed): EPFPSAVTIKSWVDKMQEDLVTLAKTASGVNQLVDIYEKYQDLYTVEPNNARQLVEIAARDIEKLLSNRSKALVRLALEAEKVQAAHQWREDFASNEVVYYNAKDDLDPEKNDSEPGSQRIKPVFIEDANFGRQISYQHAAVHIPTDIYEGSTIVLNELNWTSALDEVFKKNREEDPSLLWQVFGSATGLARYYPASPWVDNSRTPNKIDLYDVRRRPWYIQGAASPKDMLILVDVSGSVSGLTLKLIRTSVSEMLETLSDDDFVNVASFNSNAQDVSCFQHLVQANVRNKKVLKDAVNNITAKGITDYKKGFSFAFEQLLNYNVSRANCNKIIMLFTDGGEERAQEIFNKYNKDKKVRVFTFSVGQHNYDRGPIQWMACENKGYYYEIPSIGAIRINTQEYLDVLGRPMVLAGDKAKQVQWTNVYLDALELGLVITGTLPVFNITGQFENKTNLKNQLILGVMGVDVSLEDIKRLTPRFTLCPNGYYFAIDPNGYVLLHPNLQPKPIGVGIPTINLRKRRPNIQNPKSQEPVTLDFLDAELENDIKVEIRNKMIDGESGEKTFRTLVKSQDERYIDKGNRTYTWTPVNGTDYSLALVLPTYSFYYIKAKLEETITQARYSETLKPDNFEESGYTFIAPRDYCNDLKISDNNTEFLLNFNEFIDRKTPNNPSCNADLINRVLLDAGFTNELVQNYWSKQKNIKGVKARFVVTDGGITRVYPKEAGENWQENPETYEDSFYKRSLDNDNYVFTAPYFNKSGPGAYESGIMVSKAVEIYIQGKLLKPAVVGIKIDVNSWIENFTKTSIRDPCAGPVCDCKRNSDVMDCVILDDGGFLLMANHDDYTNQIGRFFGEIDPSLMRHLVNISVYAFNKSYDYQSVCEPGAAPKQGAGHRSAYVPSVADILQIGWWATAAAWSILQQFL
Sequence (P54289 947-1103 partner limits assumed): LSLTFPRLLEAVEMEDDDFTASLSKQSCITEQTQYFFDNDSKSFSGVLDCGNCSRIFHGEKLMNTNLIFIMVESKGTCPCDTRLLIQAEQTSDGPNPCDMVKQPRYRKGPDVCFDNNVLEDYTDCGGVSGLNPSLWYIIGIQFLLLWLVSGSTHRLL
Sequence (P54284 whole entry partner): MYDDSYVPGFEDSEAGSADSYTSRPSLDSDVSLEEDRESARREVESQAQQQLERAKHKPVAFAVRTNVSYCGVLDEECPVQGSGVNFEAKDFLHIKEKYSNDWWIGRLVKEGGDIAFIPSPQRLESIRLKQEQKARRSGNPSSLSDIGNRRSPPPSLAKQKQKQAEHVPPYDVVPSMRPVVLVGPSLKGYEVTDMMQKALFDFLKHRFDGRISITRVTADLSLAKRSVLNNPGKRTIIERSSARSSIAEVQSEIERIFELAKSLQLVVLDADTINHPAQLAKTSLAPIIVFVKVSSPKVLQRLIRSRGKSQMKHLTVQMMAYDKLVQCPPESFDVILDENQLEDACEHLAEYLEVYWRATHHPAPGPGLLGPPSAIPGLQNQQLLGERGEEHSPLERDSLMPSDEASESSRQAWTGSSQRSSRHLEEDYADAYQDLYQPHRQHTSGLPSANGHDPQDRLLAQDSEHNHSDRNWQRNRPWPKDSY
Experiment: N-type calcium channel antagonist activity in the aforementioned assays (Assay Examples 1-3: fluorescent, IonWorks HT, PatchXpress/manual patch clamp)
Settings: antagonizing the N-type calcium channel; which of Assay Examples 1-3 is not specified
Property label: IC50 (µM)
Number only, in µM; omit the unit.

Request: Give the measured IC50 of CC(C)([C@H]1CN(c2ccc(C(F)(F)F)cn2)C(=O)CO1)S(=O)(=O)c1cccc(C(F)(F)F)c1 .
Result: 1.52
